The values you see were collected from ChEMBL document CHEMBL3286146.

I'd be grateful if you could share measured Retention_time for these entries.
assay: Retention time of the compound by chromatography; type: physicochemical
Numbers only, in min.

{"compound": "CC(C)(O)[C@@H]1CC[C@](C)([C@H]2[C@@H](O)C[C@@]3(C)[C@@H]4C[C@H](O[C@@H]5O[C@H](CO)[C@@H](O)[C@H](O)[C@H]5O)[C@H]5C(C)(C)[C@@H](O[C@@H]6OC[C@@H](O)[C@H](O)[C@H]6O)CC[C@@]56C[C@@]46CC[C@]23C)O1", "Retention_time, min": 28.6}
{"compound": "O=c1cc(-c2ccc(O)c(O)c2)oc2cc(O)cc(O)c12", "Retention_time, min": 38.1}

Below: the item to evaluate.
[in] // returns reported Retention_time for input CC(=O)O[C@@H]1C(=O)C2=C(C(=O)C[C@H]3C(C)(C)C(=O)CC[C@]23C)[C@]2(C)C(=O)C[C@H]([C@H](C)CC(=O)CC(C)C(=O)O)[C@@]12C (stereo partly drawn)
[out] 54.4
